Data provenance: ChEMBL document CHEMBL3045383

Test system: HL-60(TB)
Assay: Cytotoxicity against Homo sapiens (human) HL-60(TB) cells after 48 hr by SRB assay
Assay type: functional
Conditions: HL-60, 48 h
Class assignment keyed on GI50, ranges range 1: < 20 µM; range 2: ≥ 20 µM and < 30 µM; range 3: ≥ 30 µM

For this compound, which bin applies? COc1cccc(C2NC(=S)NC(C)=C2C(=O)Nc2ccc(F)c(Cl)c2)c1 (configuration not stated) range 1

For this compound, which bin applies? CC1=C(C(=O)Nc2ccc(Cl)c(Cl)c2)C(c2cccc(O)c2)NC(=S)N1 (configuration not stated) range 1

For this compound, which bin applies? CC1=C(C(=O)Nc2ccc(F)c(Cl)c2)C(c2cccc(Oc3ccccc3)c2)NC(=O)N1 (configuration not stated) range 1

For this compound, which bin applies? CC1=C(C(=O)Nc2ccc(Cl)c(Cl)c2)C(c2ccccc2O)NC(=O)N1 (configuration not stated) range 3

For this compound, which bin applies? CC1=C(C(=O)Nc2ccc(F)c(Cl)c2)C(c2cccc(O)c2)NC(=S)N1 (configuration not stated) range 2

For this compound, which bin applies? CC1=C(C(=O)Nc2ccc(Cl)c(Cl)c2)C(c2ccccc2Cl)NC(=S)N1 (configuration not stated) range 1

For this compound, which bin applies? CC1=C(C(=O)Nc2ccc(Cl)c(Cl)c2)C(c2cccc(Cl)c2)NC(=O)N1 (configuration not stated) range 1

For this compound, which bin applies? COc1cccc(C2NC(=S)NC(C)=C2C(=O)Nc2ccc(Cl)c(Cl)c2)c1 (configuration not stated) range 3

For this compound, which bin applies? CC1=C(C(=O)Nc2ccc(Cl)c(Cl)c2)C(c2cccc(Oc3ccccc3)c2)NC(=S)N1 (configuration not stated) range 3

For this compound, which bin applies? CC1=C(C(=O)Nc2ccc(F)c(Cl)c2)C(c2ccccc2Cl)NC(=S)N1 (configuration not stated) range 2

For this compound, which bin applies? CC1=C(C(=O)Nc2ccc(F)c(Cl)c2)C(c2cccc(Cl)c2)NC(=S)N1 (configuration not stated) range 1

For this compound, which bin applies? CC1=C(C(=O)Nc2ccc(F)c(Cl)c2)C(c2cccc(Oc3ccccc3)c2)NC(=S)N1 (configuration not stated) range 1
